# target.of.assay: T1, 14-3-3θ (human, UniProt P27348 1-245)
# T1 construct: 14-3-3θ, human, UniProt P27348; also called 14-3-3 theta; 14-3-3τ
# T1 sequence: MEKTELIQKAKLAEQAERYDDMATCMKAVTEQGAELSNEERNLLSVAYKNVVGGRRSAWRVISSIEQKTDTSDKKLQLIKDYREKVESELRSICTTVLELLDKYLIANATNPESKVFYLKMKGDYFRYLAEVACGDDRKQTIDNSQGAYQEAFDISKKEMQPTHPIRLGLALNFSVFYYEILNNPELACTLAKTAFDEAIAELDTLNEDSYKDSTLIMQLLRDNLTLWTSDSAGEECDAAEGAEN
# protocol.text: ITC; peptide in the syringe (100 μM singly, 50 μM doubly phosphorylated) titrated into 10 μM 14-3-3θ in the cell; 20 °C; 20 mM HEPES pH 7.5, 150 mM NaCl, 1 mM MgCl2, 0.1 mM TCEP; single-site model
# study.conditions: both partners purified
Where no end group is shown, it is not given here. [ ]: non-standard residue; d: D form. pT = C[C@@H](OP(=O)(O)O)[C@H](N)C(=O)O; pS = N[C@@H](COP(=O)(O)O)C(=O)O
value.kind: stoichiometry N

*Q* Could you tell me which stoichiometry N is on file for AQPKSL[pS]PPQSQSKLSDSYSN[pT]LPVRKS [Sites 1,2 peptide (pS325/pT340)] ?
*A* ~1 peptide per 14-3-3θ subunit
